System: HCT-116 colon
Test Protocol: NCI tumour cell line growth inhibition, 48 h
Recorded TGI for the following compounds

Record excerpt, results attached:
Compound	TGI
O=[N+]([O-])C(/C(Cl)=C(/Cl)N1CCCCC1)=C1\NCCO1	> 100 µM
CCc1ccccc1NC(=O)/C(CC(=O)c1c(C)n([O-])c2ccccc2[n+]1=O)=N\NS(=O)(=O)c1ccc(C)cc1	55.3 µM
COc1ccc(C)c2c1N[C@](C)([C@]1(C)Nc3c(OC)ccc(C)c3C1=O)C2=O	> 100 µM
Cc1nc(NC(=S)NC(=O)c2ccc(Cl)c(Cl)c2)sc1C(=O)/C=C/c1ccccc1[N+](=O)[O-]	47.9 µM
CC[C@H](C)c1occ2c(O)c(C(=O)O)c(=O)cc-2c1C	41.5 µM
O=C1CN(c2cccc(C(F)(F)F)c2)C(=O)CN1NCNN1CC(=O)N(c2cccc(C(F)(F)F)c2)CC1=O	> 100 µM
COc1ccccc1C1C2=C(COC2=O)OC(C)(C)Oc2cc3c(cc21)OCO3 (centres undefined)	> 36.1 µM
O=C(O)C(Cc1cccs1)NC(=O)C(F)(F)F (centres undefined)	> 100 µM

Query compound follows.
Let me know recorded TGI for COC(=O)c1ccccc1C1CN=NC12Cc1c(C)cc(C)cc1C2=O (centres undefined) , thanks. > 100 µM
